Reference source for all entries: paper PMC8493129

# Tested on: Bcl-2
# method description: Anti-apoptotic marker level (Bcl-2) in HepG-2 cells
# Format: cell-based, human
# measurement conditions: control 5.048 pg/ml

| molecule | test target | Bcl-2, pg/mL |
| --- | --- | --- |
| COc1ccc(C=NNc2nc3ccccc3nc2Cl)cc1OC [Compound 6 g] | Bcl-2 | 1.687 |
| CN(C)c1ccc(C=NNc2nc3ccccc3nc2Cl)cc1 [Compound 6 l] | Bcl-2 | 2.519 |
| COc1nc2ccccc2nc1N/N=C1/C(=O)Nc2ccccc21 [Compound 12] | Bcl-2 | 1.571 |
| COc1ccccc1C=NNc1nc2ccccc2nc1Cl [Compound 6 f] | Bcl-2 | 2.705 |
| CC(=NNc1nc2ccccc2nc1Cl)c1ccccc1O [Compound 7 b] | Bcl-2 | 2.371 |
| COc1nc2ccccc2nc1NN=Cc1ccccc1O [Compound 10 h] | Bcl-2 | 2.673 |
| Oc1ccc2ccccc2c1C=NNc1nc2ccccc2nc1Cl [Compound 8] | Bcl-2 | 1.839 |
| Oc1ccccc1C=NNc1nc2ccccc2nc1Cl [Compound 6 k] | Bcl-2 | 2.914 |
| Clc1ccc(C=NNc2nc3ccccc3nc2Cl)c(Cl)c1 [Compound 6 d] | Bcl-2 | 2.711 |

----------
# Tested on: HepG-2 liver cancer cell line
# method description: Anti-proliferative activity (MTT / SRB assay), HepG-2
# Type: cell-based, human
# measurement conditions: Homo sapiens, HepG2; HepG-2; mean of three separate experiments
measured endpoint: log10(IC50) (log10 of the value in µM)

| compound | log10(IC50) |
| --- | --- |
| COc1cc(C=NNc2nc3ccccc3nc2Cl)cc(OC)c1OC [Compound 6 h] | 1.07 |
| O=[N+]([O-])c1ccc(C=NNc2nc3ccccc3nc2Cl)cc1 [Compound 6 j] | 1.20 |
| COc1nc2ccccc2nc1N/N=C1/C(=O)Nc2ccccc21 [Compound 12] | 0.30 |
| COc1nc2ccccc2nc1NN=Cc1ccc(Cl)cc1 [Compound 10 a] | 1.73 |
| COc1nc2ccccc2nc1NN=Cc1ccc([N+](=O)[O-])cc1 [Compound 10 g] | 1.11 |
| COc1nc2ccccc2nc1NN=Cc1c(Cl)cccc1Cl [Compound 10 c] | 1.78 |
| COc1nc2ccccc2nc1NN=Cc1c(O)ccc2ccccc12 [Compound 11] | 1.27 |
| COc1cccc2c1C(=O)c1c(O)c3c(c(O)c1C2=O)C[C@@](O)(C(=O)CO)C[C@@H]3O[C@H]1C[C@H](N)[C@H](O)[C@H](C)O1 [Doxorubicin, reference compound] | 0.92 |
| CC(=NNc1nc2ccccc2nc1Cl)c1ccccc1 [Compound 7 a] | 1.45 |
| CC(=NNc1nc2ccccc2nc1Cl)c1ccccc1O [Compound 7 b] | 0.61 |
| COc1ccc(C=NNc2nc3ccccc3nc2Cl)cc1OC [Compound 6 g] | 0.33 |
| COc1nc2ccccc2nc1NN=Cc1ccccc1O [Compound 10 h] | 0.75 |
| COc1ccc(C=NNc2nc3ccccc3nc2OC)cc1OC [Compound 10 e] | 1.75 |
| Clc1nc2ccccc2nc1NN=Cc1ccccc1 [Compound 6 a] | 1.16 |
| Clc1cccc(Cl)c1C=NNc1nc2ccccc2nc1Cl [Compound 6 e] | 1.13 |
| COc1ccccc1C=NNc1nc2ccccc2nc1Cl [Compound 6 f] | 0.82 |
| O=C1Nc2ccccc2/C1=N\Nc1nc2ccccc2nc1Cl [Compound 9] | 1.06 |
| Oc1ccccc1C=NNc1nc2ccccc2nc1Cl [Compound 6 k] | 0.89 |
| O=[N+]([O-])c1cccc(C=NNc2nc3ccccc3nc2Cl)c1 [Compound 6 i] | 1.81 |
| Clc1ccc(C=NNc2nc3ccccc3nc2Cl)c(Cl)c1 [Compound 6 d] | 0.79 |
| COc1nc2ccccc2nc1NN=Cc1ccc(Cl)cc1Cl [Compound 10 b] | 1.51 |
| COc1nc2ccccc2nc1NN=Cc1ccc(N(C)C)cc1 [Compound 10 i] | 1.36 |
| Oc1ccc2ccccc2c1C=NNc1nc2ccccc2nc1Cl [Compound 8] | 0.59 |
| COc1cc(C=NNc2nc3ccccc3nc2OC)cc(OC)c1OC [Compound 10 f] | 1.76 |
| Clc1ccc(C=NNc2nc3ccccc3nc2Cl)cc1 [Compound 6 c] | 0.18 |
| COc1ccccc1C=NNc1nc2ccccc2nc1OC [Compound 10 d] | 1.46 |
| Clc1ccccc1C=NNc1nc2ccccc2nc1Cl [Compound 6 b] | 1.20 |
| CN(C)c1ccc(C=NNc2nc3ccccc3nc2Cl)cc1 [Compound 6 l] | 0.73 |

----------
Measured IC50 (HDAC4 (Homo sapiens, UniProt P56524))
measured endpoint: IC50 (µM)

| compound structure string | unit annotation | value |
| --- | --- | --- |
| Oc1ccc2ccccc2c1C=NNc1nc2ccccc2nc1Cl | µM | 2.09 |
| COc1nc2ccccc2nc1N/N=C1/C(=O)Nc2ccccc21 | µM | 1.72 |
| CC(=NNc1nc2ccccc2nc1Cl)c1ccccc1O | µM | 2.51 |
| Clc1ccc(C=NNc2nc3ccccc3nc2Cl)c(Cl)c1 | µM | 3.25 |
| COc1ccccc1C=NNc1nc2ccccc2nc1Cl | µM | 3.44 |

----------
Measured pIC50 (HDAC1 (Homo sapiens))
pIC50: −log10 of the molar value.

| compound | test target | pIC50 |
| --- | --- | --- |
| Clc1ccc(C=NNc2nc3ccccc3nc2Cl)c(Cl)c1 [Compound 6 d] | HDAC1 (Homo sapiens) | 5.45 |
| Clc1ccc(C=NNc2nc3ccccc3nc2Cl)cc1 [Compound 6 c] | HDAC1 (Homo sapiens) | 5.75 |
| COc1nc2ccccc2nc1N/N=C1/C(=O)Nc2ccccc21 [Compound 12] | HDAC1 (Homo sapiens) | 5.70 |
| Oc1ccc2ccccc2c1C=NNc1nc2ccccc2nc1Cl [Compound 8] | HDAC1 (Homo sapiens) | 5.76 |
| COc1nc2ccccc2nc1NN=Cc1ccccc1O [Compound 10 h] | HDAC1 (Homo sapiens) | 5.45 |
